// data source = patent US11396505B2

- Test Target: CaMKK2 (Homo sapiens)
- Assay Notes: CaMKK1/2 biochemical assay, 32P radiometric kinase assay (CaMKK2)
Metric Name: IC50
Give the value; after it, write the unit.

Exercise: Quick one: IC50 of COc1ccc(/C=C/c2n[nH]c3ccc(N4CCOC4=O)cc23)cc1 ?
Key: 33 nM

Exercise: Quick one: IC50 of O=C1OCCN1c1ccc2[nH]nc(-c3cc4ccccc4[nH]3)c2c1 ?
Key: 70 nM

Exercise: Quick one: IC50 of O=C1OCCN1c1ccc2[nH]nc(/C=C/c3ccccn3)c2c1 ?
Key: 190 nM

----------
- Test Target: CaMKK1 (Homo sapiens, UniProt Q8N5S9)
- Assay Notes: CaMKK1/2 biochemical assay, 32P radiometric kinase assay (CaMKK1)
Provide the recorded IC50 for the entries that follow.
Just the number please, in nM, no unit attached.

Exercise: Quick one: IC50 of O=C1OCCN1c1ccc2[nH]nc(-c3cc4ccccc4[nH]3)c2c1 ?
Key: 141

Exercise: Quick one: IC50 of COc1ccc(/C=C/c2n[nH]c3ccc(N4CCOC4=O)cc23)cc1 ?
Key: 536

Exercise: Quick one: IC50 of O=C1OCCN1c1ccc2[nH]nc(-c3cc4ccccc4o3)c2c1 ?
Key: 164

----------
- Test Target: CaMKK2 (Homo sapiens)
- Assay Notes: CaMKK1/2 biochemical assay, 32P radiometric kinase assay (CaMKK2)
- Setup Conditions: 0.5 μM
Metric Name: Biochemical Data CaMKK2, inh @ 0.5 μM (% inh @ 0.5 μM)
Just the number please, in % inh @ 0.5 μM, no unit attached.

Exercise: Give recorded Biochemical Data CaMKK2, inh @ 0.5 μM with CaMKK2 (Homo sapiens) for the following compound: C=Cc1n[nH]c2ccc(N3CCOC3=O)cc12 [Example 8]
Key: 26

Exercise: Give recorded Biochemical Data CaMKK2, inh @ 0.5 μM with CaMKK2 (Homo sapiens) for the following compound: O=C1OCCN1c1ccc2[nH]nc(-c3cccnc3)c2c1 [Example 7]
Key: 29

Exercise: Give recorded Biochemical Data CaMKK2, inh @ 0.5 μM with CaMKK2 (Homo sapiens) for the following compound: O=C1OCCN1c1ccc2[nH]nc(-c3ccncc3)c2c1 [Example 13]
Key: 33

Exercise: Give recorded Biochemical Data CaMKK2, inh @ 0.5 μM with CaMKK2 (Homo sapiens) for the following compound: O=C1OCCN1c1ccc2[nH]nc(-c3ccccc3)c2c1 [Example 6]
Key: 37

Exercise: Give recorded Biochemical Data CaMKK2, inh @ 0.5 μM with CaMKK2 (Homo sapiens) for the following compound: CCOC(=O)c1n[nH]c2ccc(N3CCOC3=O)cc12 [CL-629]
Key: 20

Exercise: Give recorded Biochemical Data CaMKK2, inh @ 0.5 μM with CaMKK2 (Homo sapiens) for the following compound: O=C(O)c1n[nH]c2ccc(N3CCOC3=O)cc12 [CL-628]
Key: 22

Exercise: Give recorded Biochemical Data CaMKK2, inh @ 0.5 μM with CaMKK2 (Homo sapiens) for the following compound: O=C1OCCN1c1ccc2[nH]nc(C#Cc3ccccn3)c2c1 [Example 12]
Key: 52

----------
Provide the recorded Biochemical Data CaMKK2, inh @ 0.2 μM for the entries that follow.
- Test Target: CaMKK2 (Homo sapiens)
- Assay Notes: CaMKK1/2 biochemical assay, 32P radiometric kinase assay (CaMKK2)
- Setup Conditions: 0.2 μM
Give the value; after it, write the unit.

Exercise: Quick one: Biochemical Data CaMKK2, inh @ 0.2 μM of O=C1CCCCN1c1ccc2[nH]nc(-c3cc4ccccc4[nH]3)c2c1 ?
Key: 12% inh @ 0.2 μM

Exercise: Quick one: Biochemical Data CaMKK2, inh @ 0.2 μM of O=C1OCCN1c1ccc2[nH]nc(-c3cccc(-c4ccccc4)c3)c2c1 ?
Key: 36% inh @ 0.2 μM

Exercise: Quick one: Biochemical Data CaMKK2, inh @ 0.2 μM of O=C1OCCN1c1ccc2[nH]nc(-c3cccc(Cl)c3)c2c1 ?
Key: 44% inh @ 0.2 μM

Exercise: Quick one: Biochemical Data CaMKK2, inh @ 0.2 μM of O=C1OCCN1c1ccc2[nH]nc(-c3ccc(Cl)cc3)c2c1 ?
Key: 41% inh @ 0.2 μM

Exercise: Quick one: Biochemical Data CaMKK2, inh @ 0.2 μM of O=C1OCCN1c1ccc2[nH]nc(-c3cccc4ccccc34)c2c1 ?
Key: 15% inh @ 0.2 μM

Exercise: Quick one: Biochemical Data CaMKK2, inh @ 0.2 μM of O=C1OCCCN1c1ccc2[nH]nc(-c3cc4ccccc4[nH]3)c2c1 ?
Key: 37% inh @ 0.2 μM

Exercise: Quick one: Biochemical Data CaMKK2, inh @ 0.2 μM of O=C1OCCN1c1ccc2[nH]nc(-c3ccc[nH]3)c2c1 ?
Key: 37% inh @ 0.2 μM

Exercise: Quick one: Biochemical Data CaMKK2, inh @ 0.2 μM of O=C1OCCN1c1ccc2[nH]nc(-c3ccc4cc[nH]c4c3)c2c1 ?
Key: 55% inh @ 0.2 μM

----------
Provide the recorded inhibition at 0.2 µM for the entries that follow.
- Test Target: CaMKK2 (Homo sapiens)
- Assay Notes: CaMKK1/2 biochemical assay, 32P radiometric kinase assay (CaMKK2)
- Setup Conditions: 0.2 μM compound; read-out: CaMKK2 % inhibition @ concentrations shown, 0.2 μM

Exercise: Give recorded inhibition at 0.2 µM with CaMKK2 (Homo sapiens) for the following compound: C[C@@H]1COC(=O)N1c1ccc2[nH]nc(-c3cc4ccccc4[nH]3)c2c1
Key: 73%

Exercise: Give recorded inhibition at 0.2 µM with CaMKK2 (Homo sapiens) for the following compound: O=C1OCCN1c1ccc2[nH]nc(-c3ccc[nH]3)c2c1
Key: 37%

Exercise: Give recorded inhibition at 0.2 µM with CaMKK2 (Homo sapiens) for the following compound: O=C1OCCN1c1ccc2[nH]nc(-c3cc4c(Cl)cccc4[nH]3)c2c1
Key: 71%

Exercise: Give recorded inhibition at 0.2 µM with CaMKK2 (Homo sapiens) for the following compound: O=C1OCCN1c1ccc2[nH]nc(-c3ccc4cc[nH]c4c3)c2c1
Key: 44%

Exercise: Give recorded inhibition at 0.2 µM with CaMKK2 (Homo sapiens) for the following compound: O=C(O)[C@@H]1CCC(=O)N1c1ccc2[nH]nc(-c3cc4ccccc4[nH]3)c2c1
Key: 78%

Exercise: Give recorded inhibition at 0.2 µM with CaMKK2 (Homo sapiens) for the following compound: O=C1CCCCN1c1ccc2[nH]nc(-c3cc4ccccc4[nH]3)c2c1
Key: 12%

Exercise: Give recorded inhibition at 0.2 µM with CaMKK2 (Homo sapiens) for the following compound: O=C1OC[C@H](c2ccccc2)N1c1ccc2[nH]nc(-c3cc4ccccc4[nH]3)c2c1
Key: 74%

Exercise: Give recorded inhibition at 0.2 µM with CaMKK2 (Homo sapiens) for the following compound: CC(C)[C@H]1COC(=O)N1c1ccc2[nH]nc(-c3cc4ccccc4[nH]3)c2c1
Key: 72%

Exercise: Give recorded inhibition at 0.2 µM with CaMKK2 (Homo sapiens) for the following compound: O=C1OCCN1c1ccc2[nH]nc(-c3cc4cccc(Cl)c4[nH]3)c2c1
Key: 71%

----------
- Test Target: UniProt:Q96RR4
- Assay Notes: CaMKK1/2 biochemical assay, 32P radiometric kinase assay (CaMKK2)
- Setup Conditions: 10 μM compound; read-out: CaMKK2 % inhibition @ concentrations shown, 10 μM
Provide the recorded inhibition at 10 µM for the entries that follow.
Give the value; after it, write the unit.

Exercise: Quick one: inhibition at 10 µM of O=C1OCCN1c1ccc2[nH]nc(-c3cc4ccccc4o3)c2c1 ?
Key: 98%

Exercise: Quick one: inhibition at 10 µM of O=C1OCCN1c1ccc2[nH]nc(-n3ccnc3)c2c1 ?
Key: 29%

Exercise: Quick one: inhibition at 10 µM of O=C1OCCN1c1ccc2[nH]nc(-c3cc4ccccc4[nH]3)c2c1 ?
Key: 100%

Exercise: Quick one: inhibition at 10 µM of O=C1OCCN1c1ccc2[nH]nc(/C=C/c3ccccn3)c2c1 ?
Key: 98%

Exercise: Quick one: inhibition at 10 µM of O=C1OCCN1c1ccc2[nH]nc(-c3coc4ccccc34)c2c1 ?
Key: 72%

----------
Provide the recorded Biochemical Data CaMKK1, inh @ 0.2 μM for the entries that follow.
- Test Target: CaMKK1 (Homo sapiens, UniProt Q8N5S9)
- Assay Notes: CaMKK1/2 biochemical assay, 32P radiometric kinase assay (CaMKK1)
- Setup Conditions: 0.2 μM

Exercise: Quick one: Biochemical Data CaMKK1, inh @ 0.2 μM of O=C1OCCN1c1ccc2[nH]nc(-c3ccc(Cl)cc3)c2c1 ?
Key: <5% inh @ 0.2 μM

Exercise: Quick one: Biochemical Data CaMKK1, inh @ 0.2 μM of O=C1OCCN1c1ccc2[nH]nc(-c3ccc[nH]3)c2c1 ?
Key: <5% inh @ 0.2 μM

Exercise: Quick one: Biochemical Data CaMKK1, inh @ 0.2 μM of O=C1OCCN1c1ccc2[nH]nc(-c3ccc4cc[nH]c4c3)c2c1 ?
Key: <5% inh @ 0.2 μM
